assayed_target: AxCT mask27 EGFR EH104 L040 version 1
Listing: Percent cleavage of selected proteins

- protein: "MMP-1 (protein) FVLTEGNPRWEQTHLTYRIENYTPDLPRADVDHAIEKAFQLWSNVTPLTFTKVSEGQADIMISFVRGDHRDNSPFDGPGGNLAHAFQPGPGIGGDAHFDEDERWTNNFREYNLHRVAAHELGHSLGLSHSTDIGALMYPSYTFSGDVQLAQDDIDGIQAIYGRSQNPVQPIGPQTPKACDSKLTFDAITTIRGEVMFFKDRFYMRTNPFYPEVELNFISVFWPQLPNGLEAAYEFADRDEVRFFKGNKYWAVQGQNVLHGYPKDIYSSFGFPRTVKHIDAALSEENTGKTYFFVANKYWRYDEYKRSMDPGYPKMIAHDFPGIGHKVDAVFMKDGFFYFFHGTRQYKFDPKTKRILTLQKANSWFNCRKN"
  Percent cleavage: "6%"

q: Entry Matriptase (protein) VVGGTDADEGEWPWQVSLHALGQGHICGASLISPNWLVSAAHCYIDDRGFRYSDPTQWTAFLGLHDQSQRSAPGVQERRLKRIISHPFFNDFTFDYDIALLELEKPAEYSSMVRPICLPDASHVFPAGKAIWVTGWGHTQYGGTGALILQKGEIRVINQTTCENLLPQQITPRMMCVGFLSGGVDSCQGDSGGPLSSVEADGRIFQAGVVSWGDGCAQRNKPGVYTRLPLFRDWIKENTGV : reported Percent cleavage = ?
a: 67%

q: What do you get for Neutrophil Elastase (protein) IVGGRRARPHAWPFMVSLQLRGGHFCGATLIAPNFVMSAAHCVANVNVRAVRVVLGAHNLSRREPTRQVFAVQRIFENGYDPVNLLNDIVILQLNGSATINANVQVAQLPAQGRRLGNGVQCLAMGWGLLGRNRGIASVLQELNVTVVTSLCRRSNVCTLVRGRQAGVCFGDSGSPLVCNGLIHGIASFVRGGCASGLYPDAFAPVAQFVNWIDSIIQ ?
a: 13%
